measured_target: KRas G12D mutant protein (Homo sapiens (Human), UniProt P01116, G12D)
Sequence (P01116-2 other isoform, or with tags, fused parts or gaps G12D): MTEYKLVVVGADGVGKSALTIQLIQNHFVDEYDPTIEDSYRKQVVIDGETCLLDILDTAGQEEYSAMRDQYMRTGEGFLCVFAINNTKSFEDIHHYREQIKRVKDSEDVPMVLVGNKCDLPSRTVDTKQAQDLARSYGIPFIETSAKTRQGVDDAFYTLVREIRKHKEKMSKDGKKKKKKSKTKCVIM
procedure_text: Ras GTP binding domain inhibition assay (labeled GTP)
measurement_setup: at 20 μM; read-out: KRas G12D % Inh.

>  <molecule>
CC(C)COc1ccc(-c2csc3c(O)nc(-c4nccn4C)nc23)cn1 [drawing 3930]

>  <inhibition at 20 µM>
76 to 100%

$$$$
>  <molecule>
Oc1cccc(-c2csc3c(O)nc(-c4ccccn4)nc23)n1 [drawing 3817]

>  <inhibition at 20 µM>
51 to 75%

$$$$
>  <molecule>
Oc1nc(-c2ccccn2)nc2c(-c3ccsc3)csc12 [drawing 3747]

>  <inhibition at 20 µM>
51 to 75%

$$$$
>  <molecule>
Cn1ccnc1-c1nc(NCCCO)c2c(-c3ccccc3)c(-c3ccccc3)sc2n1 [drawing 3897]

>  <inhibition at 20 µM>
51 to 75%

$$$$
>  <molecule>
CC(C)Cc1csc2c(O)nc(-c3ccccn3)nc12 [drawing 3813]

>  <inhibition at 20 µM>
51 to 75%

$$$$

Data provenance: patent US10940139B2
